molecular target: F508delCFTR (Homo sapiens, UniProt P13569, DEL508-508); construct: expressed in transfected cells; host or cells: CFBE41o- human lung-derived epithelial cells (CFBE4lo-F508delCFTR-HRP), doxycycline-inducible; test: Cell Surface Expression-Horse Radish Peroxidase (CSE-HRP) Assay; assay type: cell-based; details: test compound without co-corrector; read-out: EC50 (without co-corrector)
Sequence (P13569 with tags, fused parts or gaps DEL508-508): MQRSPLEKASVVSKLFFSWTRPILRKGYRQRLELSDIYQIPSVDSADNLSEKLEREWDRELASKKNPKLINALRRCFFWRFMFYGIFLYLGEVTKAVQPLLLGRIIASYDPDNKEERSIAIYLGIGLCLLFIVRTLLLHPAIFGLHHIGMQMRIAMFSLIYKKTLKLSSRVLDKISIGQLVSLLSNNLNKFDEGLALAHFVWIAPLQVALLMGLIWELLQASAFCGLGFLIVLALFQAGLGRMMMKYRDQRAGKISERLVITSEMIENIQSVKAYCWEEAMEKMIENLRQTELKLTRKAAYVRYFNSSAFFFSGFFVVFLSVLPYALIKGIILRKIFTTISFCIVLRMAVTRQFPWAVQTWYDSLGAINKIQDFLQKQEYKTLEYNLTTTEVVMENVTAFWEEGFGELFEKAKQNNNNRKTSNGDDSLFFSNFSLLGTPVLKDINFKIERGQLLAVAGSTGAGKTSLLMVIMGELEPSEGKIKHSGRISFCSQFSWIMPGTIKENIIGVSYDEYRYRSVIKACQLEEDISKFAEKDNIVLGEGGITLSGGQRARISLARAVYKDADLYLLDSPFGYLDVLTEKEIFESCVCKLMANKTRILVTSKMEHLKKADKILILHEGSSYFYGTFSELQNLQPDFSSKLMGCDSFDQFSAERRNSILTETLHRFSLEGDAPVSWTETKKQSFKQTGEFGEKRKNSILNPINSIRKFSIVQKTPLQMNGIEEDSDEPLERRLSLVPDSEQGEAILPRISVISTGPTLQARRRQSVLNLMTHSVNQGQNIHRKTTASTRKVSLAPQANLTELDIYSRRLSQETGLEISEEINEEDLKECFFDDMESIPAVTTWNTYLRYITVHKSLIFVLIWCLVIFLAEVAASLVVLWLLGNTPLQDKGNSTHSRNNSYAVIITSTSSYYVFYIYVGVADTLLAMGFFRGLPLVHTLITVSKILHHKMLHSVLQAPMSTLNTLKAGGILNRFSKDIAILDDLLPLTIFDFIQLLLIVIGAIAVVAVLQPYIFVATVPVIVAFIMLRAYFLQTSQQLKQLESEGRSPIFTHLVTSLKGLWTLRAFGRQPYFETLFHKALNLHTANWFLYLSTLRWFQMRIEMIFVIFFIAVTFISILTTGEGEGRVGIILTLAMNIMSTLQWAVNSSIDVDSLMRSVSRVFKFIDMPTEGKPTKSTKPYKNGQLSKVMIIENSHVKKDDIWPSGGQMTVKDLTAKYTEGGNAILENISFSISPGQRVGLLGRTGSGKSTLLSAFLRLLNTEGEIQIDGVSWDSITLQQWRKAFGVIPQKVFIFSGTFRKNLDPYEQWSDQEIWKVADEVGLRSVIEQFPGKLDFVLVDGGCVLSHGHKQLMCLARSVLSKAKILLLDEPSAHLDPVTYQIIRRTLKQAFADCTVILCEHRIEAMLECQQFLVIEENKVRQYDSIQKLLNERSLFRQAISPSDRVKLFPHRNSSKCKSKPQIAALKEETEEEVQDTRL
Measure: EC50

Molecule	Value Reported
COc1ccc(C(F)(F)F)cc1CN[C@H]1[C@H](C(C)(C)C)[C@@H](C(=O)O)N(C(=O)C2(C)CCCOC2)[C@H]1c1ccccc1N(C)C (mixture of isomers)	1 to 10 µM
COc1cc(C(F)(F)F)ccc1CN[C@H]1[C@H](C(C)(C)C)[C@@H](C(=O)O)N(C(=O)[C@H]2CCC[C@H](OC)C2)[C@H]1c1ccccc1	1 to 10 µM
COCCn1cc(C(F)(F)F)cc(CN[C@H]2[C@H](C(C)(C)C)[C@@H](C(=O)O)N(C(=O)C3CCCCC3)[C@H]2c2ccccc2)c1=O (racemic)	> 10 µM
CCS(=O)(=O)NC(=O)[C@H]1[C@H](C(C)(C)C)[C@@H](Nc2cc(C(F)(F)F)cc(C)n2)[C@@H](c2ccccc2)N1C(=O)C1CCCCC1 (racemic)	> 10 µM
COc1ccc(C(F)(F)F)cc1CN[C@H]1[C@H](C(C)(C)C)[C@@H](C(=O)O)N(C(=O)C2CCCCC2)[C@H]1c1ccccc1	< 1 µM
COc1ncc(C2CCC2)cc1CN[C@H]1[C@H](C(C)(C)C)[C@@H](C(=O)O)N(C(=O)C2Cc3ccccc3CO2)[C@H]1c1ccccc1 (some centres unmarked)	1 to 10 µM
COc1ccc(C(C)(C)C)cc1CN[C@H]1[C@H](C(C)(C)C)[C@@H](C(=O)O)N(C(=O)C2OC[C@@H]3CCC[C@H]23)[C@H]1c1ccccc1 (relative stereo)	1 to 10 µM
Cc1cc(C(F)(F)F)cc(N[C@H]2[C@H](C(C)(C)C)[C@@H](C(=O)O)N(C(=O)C3CCCCC3C(F)(F)F)[C@H]2c2cccnc2N(C)C)n1 (some centres unmarked)	1 to 10 µM
CO[C@@H](C(=O)N1[C@H](c2cccnc2N(C)C)[C@H](Nc2cc(C(F)(F)F)cc(C)n2)[C@@H](C(C)(C)C)[C@@H]1C(=O)O)c1ccccc1 (racemic)	> 10 µM
COc1ncc(C2CCC2)cc1CN[C@H]1[C@H](C(C)(C)C)[C@@H](C(=O)O)N(C(=O)c2ccc3c(c2)OCCO3)[C@H]1c1ccccc1	1 to 10 µM
COc1ccc(-c2ccccc2)cc1CN[C@H]1[C@H](C(C)(C)C)[C@@H](C(=O)O)N(C(=O)[C@@H]2CCC[C@@H](OC)C2)[C@H]1c1ccccc1	1 to 10 µM
COc1ccc(C(C)(C)C)cc1CN[C@H]1[C@H](C(C)(C)C)[C@@H](C(=O)O)N(C(=O)C2CCc3ccccc3O2)[C@H]1c1cccnc1N(C)C (single isomer, unassigned) [II-438]	1 to 10 µM
COc1nc(C2CCC2)ccc1CN[C@H]1[C@H](C(C)(C)C)[C@@H](C(=O)O)N(C(=O)C2CCCCC2)[C@H]1c1ccccc1	1 to 10 µM
COc1ccc(C(F)(F)F)cc1CN[C@H]1[C@H](C(C)(C)C)[C@@H](C(=O)O)N(C(=O)C2CCC(C(F)(F)F)C2)[C@H]1c1ccccc1 (some centres unmarked)	1 to 10 µM
COc1ccc(C2(C)CCC2)cc1CN[C@H]1[C@H](C(C)(C)C)[C@@H](C(=O)O)N(C(=O)[C@@H]2CCCO2)[C@H]1c1ccccc1C	1 to 10 µM
COc1ccc(C(C)(C)C)cc1CN[C@H]1[C@H](C(C)(C)C)[C@@H](C(=O)O)N(C(=O)[C@H]2CCCCO2)[C@H]1c1ccccc1F	1 to 10 µM
COc1ccc(C(C)(C)C)cc1CN[C@H]1[C@H](C(C)(C)C)[C@@H](C(=O)O)N(C(=O)C2CCCCC2C(F)(F)F)[C@H]1c1ccccc1 (some centres unmarked)	< 1 µM
COc1ccc(CN[C@@H]2[C@@H](C(C)(C)C)[C@H](C(=O)O)N(C(=O)C3CCCCC3)[C@@H]2c2ccccc2)c(OC)c1Cl (racemic)	1 to 10 µM
COc1nc2ccccc2cc1CN[C@H]1[C@H](C(C)(C)C)[C@@H](C(=O)O)N(C(=O)C2CCOCC2)[C@H]1c1cccnc1N(C)C	1 to 10 µM
COc1ccc(C(C)(C)C)cc1CN[C@H]1[C@H](C(C)(C)C)[C@@H](C(=O)O)N(C(=O)OC2COC2)[C@H]1c1ccccc1	1 to 10 µM
COc1ccc(OC(F)(F)F)cc1CN[C@H]1[C@H](C(C)(C)C)[C@@H](C(=O)O)N(C(=O)[C@H](C)c2ccccc2)[C@H]1c1cccnc1OC	1 to 10 µM
COc1ccc(C(C)(C)C)cc1CN[C@H]1[C@H](C(C)(C)C)[C@@H](C(=O)O)N(C(=O)[C@@H](C)[C@H]2CCCCO2)[C@H]1c1ccccc1 (relative stereo)	1 to 10 µM
COc1ncc(C2CCC2)cc1CN[C@H]1[C@H](C(C)(C)C)[C@@H](C(=O)O)N(C(=O)OC(C)C)[C@H]1c1cccnc1OC(C)C	1 to 10 µM
